# TEST PROTOCOL: Toxicity liver stage against HepG2, at 10uM
# Assay type: cell-based
# Set-up: test concentration 10 uM, cell line HepG2-A16-CD81EGFP
# TEST SETTINGS: human, HepG2-A16-CD81EGFP cells; read-out: INHIBITION
ASSAY READOUT: cytotoxicity at 10 µM (%)
Respond numerically; units are % and should not be typed.

INSERT INTO measurements (molecule, units_text, value_observed) VALUES
  ('CNC(=O)[C@H]1C[C@@H]2CN(C(=O)c3ccccn3)C[C@@H]2N1S(C)(=O)=O', '%', -1.37),
  ('O=C1CCC2(CCN(Cc3nccs3)CC2)CN1CCCO', '%', -7.56),
  ('Cn1ccnc1C1CCN(S(=O)(=O)c2ccc3[nH]c(=O)[nH]c3c2)CC1', '%', 4.82),
  ('CCn1ncnc1CN(CCOC)Cc1ccc(C)cc1', '%', -40.2),
  ('O=C(NCC1CC(=O)N(CCc2ccccc2)C1)c1c(F)cccc1F (centres undefined)', '%', 9.52),
  ('CC(Cn1ccnc1)NC(=O)N(C)Cc1ccsc1 (centres undefined)', '%', 2.69),
  ('O=C(c1ccc(Cl)cc1-n1cnnn1)N1CCC2(CC1)OCCO2', '%', 3.51),
  ('Cc1cc(-c2cnc(N3CCNC(=O)C3)nc2-c2ccncc2)on1', '%', -25);

Challenge: Returns the measured cytotoxicity at 10 µM for the input molecule. Input: C=c1occc1=C1NC(c2cccc(CN3CCOCC3)c2)=NO1
Response given: -5.92

Challenge: State the recorded cytotoxicity at 10 µM for this entry: CC(C)C[C@H](N)c1nnc(SCC(N)=O)o1
Response given: 4.95

Challenge: Query (molecule): CN(C)C(=O)CCCS(=O)(=O)Cc1cc(Cl)c2c(c1)OCCO2 ; field requested: cytotoxicity at 10 µM
Response given: 2.47

Challenge: Bench note: what cytotoxicity at 10 µM did CC(CN1CCOCC1)NC(=O)NCc1ccc(Cl)s1 (centres undefined) show?
Response given: 1.23

Challenge: Which cytotoxicity at 10 µM reading was recorded for the molecule Cc1noc(C)c1CSCc1nc(N)c2ccccc2n1 ?
Response given: 5.15

Challenge: Entry CN1CCN(Cc2ccc(-c3ccc(C(N)=O)cc3)nc2)CC1 : reported cytotoxicity at 10 µM = ?
Response given: 5.58

Challenge: // returns reported cytotoxicity at 10 µM for input O=C(Cn1c(=O)oc2ccccc21)N1Cc2cncnc2C1
Response given: -0.0603

Challenge: Param item = COc1ccc(CCC(=O)N(C(C)C)C2CCOCC2)cc1 ; retrieve measured cytotoxicity at 10 µM.
Response given: -11.8

Challenge: Recorded cytotoxicity at 10 µM for COC(=O)N1CCC(NC(=O)CC(C)CCc2ccccc2)CC1 (centres undefined) , please?
Response given: 4.6

Challenge: Name the reported cytotoxicity at 10 µM value associated with the molecule Cc1cccc(C(C(=O)NCC2(O)CCCCC2)N(C)C)c1 (centres undefined)
Response given: -8.82

Challenge: What measured cytotoxicity at 10 µM goes with Cc1nc(C)n(CC2CN(CCOc3ccccc3F)CCO2)n1 (centres undefined) ?
Response given: -1.44

Challenge: Query (molecule): CCCn1ncc(CN(Cc2ccsc2)Cc2ccco2)c1C ; field requested: cytotoxicity at 10 µM
Response given: 9.27

Challenge: Which cytotoxicity at 10 µM reading was recorded for the molecule Cc1cnc(C)c(N2CCN(CCCc3ccncc3)CC2)n1 ?
Response given: -15.4

Challenge: Given the entry COCCS(=O)(=O)c1ncc(CN(C)CC(C)C)n1Cc1ccccc1 , report its measured cytotoxicity at 10 µM.
Response given: -1.27

Challenge: I have this molecule here, COc1ccccc1OCCC(=O)NCc1ncc(C)c(OC)c1C , and I need its recorded cytotoxicity at 10 µM.
Response given: -3.63

Challenge: Need cytotoxicity at 10 µM of CC(C(=O)N1CCN(c2cnccn2)CC1)n1cncn1 (centres undefined) , thanks.
Response given: 8.37

----------
# TEST PROTOCOL: Toxicity liver stage against HepG2, at 10uM
# Type: cell-based
# Set-up: test concentration 10 uM, cell line HepG2-A16-CD81EGFP
# TEST SETTINGS: human, HepG2-A16-CD81EGFP cells; read-out: INHIBITION
Reported cytotoxicity at 10 µM is given for each of the following compounds.
Please respond with the number in % and leave the unit unwritten.

Before answering, review these 3 worked examples.
INSERT INTO measurements (compound, units_text, value_observed) VALUES
  ('O=C(c1cccnc1O)N1CCC(COc2ccccc2)CC1', '%', 9.53),
  ('CCOC(=O)NC(CNC(=O)c1ncccn1)CC(C)C (stereo unspecified)', '%', -4.92),
  ('COCCN1CCCC2(CCN(c3ncc(Cl)cc3Cl)C2)C1=O (stereo unspecified)', '%', 9.44);

Challenge: If you can, please state the reported cytotoxicity at 10 µM value of Cc1cc(C(=O)NC2CCC3(CCC(=O)N3)CC2)no1 (stereo unspecified) .
Response given: 4.23

Challenge: Which cytotoxicity at 10 µM reading was recorded for the compound Cc1cnn(CC2CC2)c1NC(=O)c1cccnc1O ?
Response given: 6.62

Challenge: // returns reported cytotoxicity at 10 µM for input Cc1cc(C)c2nc(CN3CCC(CN)C3)cc(O)c2c1 (stereo unspecified)
Response given: -14.8

----------
cytotoxicity at 10 µM by entry:
# TEST PROTOCOL: Toxicity liver stage against HepG2, at 10uM
# Assay type: cell-based
# Design: test concentration 10 uM, cell line HepG2-A16-CD81EGFP
# TEST SETTINGS: human, HepG2-A16-CD81EGFP cells; read-out: INHIBITION
Provide a numeric answer, followed by its unit.

Challenge: Query: cytotoxicity at 10 µM; subject: O=C(c1cnc(COc2ccccc2)nc1O)N1CCC(F)(F)CC1
Response given: -3.11%

Challenge: May I ask what cytotoxicity at 10 µM has been recorded for Cc1[nH]c2ccc(CNc3cc(C(N)=O)ccn3)cc2c1C ?
Response given: -4.73%

Challenge: Consider the molecule shown here: OC(CNCCn1cccn1)COc1cccc(C(F)(F)F)c1 (centres undefined) What is its recorded cytotoxicity at 10 µM?
Response given: -19.7%

Challenge: # lookup: cytotoxicity at 10 µM of COc1cc(C(=O)N(Cc2cnn(C)c2)C(C)C)ccc1OCC(N)=O
Response given: -5.45%

Challenge: State the recorded cytotoxicity at 10 µM for this entry: Cc1ccc([C@@H]2CN(C(=O)c3cc[nH]c3)C[C@H]2NC(=O)C2CC2)cc1
Response given: -7.59%

Challenge: cytotoxicity at 10 µM for CC(c1ccc(-c2cnc(N)nc2)cc1)N1CCOCC1 (centres undefined) ?
Response given: 1.97%

Challenge: For the molecule shown here, CC(C)(C)CC(=O)NCCCn1cncn1 , give the reported cytotoxicity at 10 µM.
Response given: -4.34%

Challenge: May I ask what cytotoxicity at 10 µM has been recorded for CC(C)C(N)C1=NC(=C2N=CN=N2)NO1 (centres undefined) ?
Response given: 8.86%

Challenge: What does the record list as cytotoxicity at 10 µM for CC(=O)NCCNC(=O)c1cnc(-c2ccccc2)nc1 ?
Response given: 6.56%

Challenge: Please report the recorded cytotoxicity at 10 µM for Fc1ccc(CN2CCC3(CC2)CCN(c2ncccn2)CC3)cc1 .
Response given: -73.7%

Challenge: Quick one: cytotoxicity at 10 µM for CC(C)c1ccc(OCCC(=O)N(C)CC(=O)N(C)C)cc1 ?
Response given: 4.72%

Challenge: Look up cytotoxicity at 10 µM for this molecule: COCCN1CCC(CN(CC2CCCO2)C(=O)C2CCOCC2)CC1 (centres undefined)
Response given: -0.401%

Challenge: Suppose we examine the molecule COCC(=O)NCC1CCC(c2nnc(-c3cccnc3)o2)CC1 (centres undefined) ; what cytotoxicity at 10 µM value has been reported?
Response given: -2.74%

Challenge: Which cytotoxicity at 10 µM reading was recorded for the molecule COc1ccc(-c2ccccc2CCN)c(OC)c1 ?
Response given: 8.95%

Challenge: Look at this molecule and give its reported cytotoxicity at 10 µM. CC(=O)N(Cc1noc(C2CC2)n1)C1CCN(Cc2nccn2C)C1 (centres undefined)
Response given: -5.65%

Challenge: If you can, please state the reported cytotoxicity at 10 µM value of O=C(Cc1ccc(-n2cnnn2)cc1)Nc1cnn(CC(F)F)c1 .
Response given: 1.97%

Challenge: Reported cytotoxicity at 10 µM, molecule Cc1ccc([C@@H]2CN(S(=O)(=O)Cc3ccccc3)C[C@H]2N(C)C)cc1 : ____
Response given: -2.85%

Challenge: Using the record for CCOC(C)c1nc(CN2CCN(c3nccc(C)n3)CC2)cs1 (centres undefined) , report its cytotoxicity at 10 µM.
Response given: -8.89%

Challenge: Need cytotoxicity at 10 µM of COCCC(=O)N1CCC2(COCc3cnc(-c4cccnc4)nc32)C1 (centres undefined) , thanks.
Response given: -115%

Challenge: Requested read-out: cytotoxicity at 10 µM. Entry: O=C(c1cc(Cl)c2c(c1)OCO2)N1CCN(c2nccs2)CC1
Response given: -3.6%

Challenge: cytotoxicity at 10 µM lookup needed for COc1cccc(-c2cc(C(=O)N3N=C(C)CC3(O)C(F)F)[nH]n2)c1 (centres undefined) , thanks.
Response given: 8.46%

Challenge: Sample Cc1ccc(C(=O)N2C[C@@H]3CCN(C(C)C)C[C@@H]3C2)cn1 — what was its cytotoxicity at 10 µM?
Response given: -6.54%

Challenge: I am curious: what cytotoxicity at 10 µM value has been reported for CCOC(=O)[C@]12CCCN(Cc3nccs3)C[C@H]1CN(S(C)(=O)=O)C2 ?
Response given: -5.79%

Challenge: Data request, read-out cytotoxicity at 10 µM, for Cc1ccc(S(=O)(=O)NCC2CNCCOC2)cc1Cl (centres undefined)
Response given: 0.858%
